Reference source: patent US20120045438A1

System: T1, human IL-13 R130Q variant (R110Q of the mature chain) (human, UniProt P35225 35-146, Biotinylated on amines (NHS-LC-biotin, 4:1) in ELISA, panning and competition assays. The letters are unchanged.)
T1 construct: R130Q counts from Met 1 of the signal peptide, R110Q on the mature chain; Bought from Peprotech; also called IL-13 R110Q; b-R130Q
T1 sequence (P35225 35-146 limits assumed, stated change not applied): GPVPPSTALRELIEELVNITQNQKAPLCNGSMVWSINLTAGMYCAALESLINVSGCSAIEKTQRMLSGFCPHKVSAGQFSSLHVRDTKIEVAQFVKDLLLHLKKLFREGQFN
Protocol Text: SPR (Biacore), mAb made in HEK293
Measure Name: pKd
FYI, pKd means -log10 of a concentration in mol per litre.

State the recorded pKd for this entry: mAb Lc-2B03 with Hc2 T31S, M34S, M100L, V106I (antibody, V domains shown, full-length mAb, made in HEK293 and CHO) VH: QVTLKESGPVLVKPTETLTLTCTVSGFSLSSYGSGVGWIRQPPGKALEWLAHIWWDDVKRYNPALKSRLTISKDTSKSQVVLTMTNMDPVDTATYYCARLGSDYDIWFDYWGQGTLVTVSS VL: EIVLTQSPATLSLSPGERATLSCRASKSISKYLAWYQQKPGQAPRLLIYSGSTLQSGIPARFSGSGSGTDFTLTISSLEPEDFAVYYCQQHDYPYTFGQGTKLEIK 10.82
